Cited source: the supplement of paper PMC12636428

# Test system: Saccharomyces cerevisiae
# protocolNotes: transcriptional activation domain activity (GFP:mCherry ratio, weighted mean of sorted bins, harmonized to initial dataset scale) (arbitrary fluorescence ratio units); higher = stronger transcriptional activation
# particulars: beta-estradiol 1 µM; induction time 4 h
Assign yes to entries whose transcriptional activation domain activity meets or exceeds 40000; assign no to the rest.

Here's what some known entries look like.
* AITRLSLVIDALKEGMRYDCDHVLETYQYDVLLVAGYFYLAAILDKSGVDPTA | yes
* DREHRSKHRRHSSDSRSRSHSHRERRKDKSKHREKEKDKDRKKRKKEKERRRD | no
* MFLCFFHVFMLYLCHYVIVMLIYFLIYFMLFLLFMFLNTILQYEFLILHFCFI | yes
* MLYFFFFYVYNVNIKQYLSIIMILFINGFSFYIYFLFHFLYIFFFFFLTITLS | yes
* NVLDASSVIARRAVETGGRNVPRGAAGGGAPRNRARGFELEIGNATLLGRRHN | no

Below: the item to evaluate.
Prompt: Answer whether transcriptional activation domain activity of AYSITLPICSSPILLLFIQSLLFLLPLFSITLSPSFSFILYLLHLFSLLLLCL is greater than or equal to 40000.
Response: no

----------
Below is a list of entries, each paired with its recorded transcriptional activation domain activity value.
# Tested on: Saccharomyces cerevisiae
# protocolNotes: transcriptional activation domain activity (GFP:mCherry ratio, weighted mean of sorted bins, harmonized to initial dataset scale) (arbitrary fluorescence ratio units); higher = stronger transcriptional activation
# particulars: beta-estradiol 1 µM; induction time 4 h
Please give the numeric answer without any surrounding text.

Please review the entries below; each comes with its answer.
• VHFIYHHSFRMRFYYFFLLSFLQAGRSIGFLIHGFWCFLLLIAFFVYPFLRFV = 64600
• MFLEGVLQFVFFFFFFFPVYLSTFIFKFLAVGFLGSYLFLLVQLMQLIHSLIL = 31900
• YHVQQSNIQLYDNDQVHIFLRKHFLYWLEALSLIGRLYEGVLALKILESILTL = 61500
• HWSYARNANMIVNFFYKNIMGIGVLWWFQIYCGWSTTYVFEYTYLLFWNVFWS = 56200
• APAQPAATGGGLFGSGATGTTGGFGSNTAGGFGTGGGFGAKPAFGATPSTTGG = 15600
• KRNKPNACGGCGAESDENGGALMMCSRCKDRKYCGAECQKTHWKVHKKVCEVA = 58500
• MPFRNCFACIICCSWLLYLDVLLILSMYSIYFMGGFARYLFWFIYWFFGIMEL = 44800
• KEVKEGEEGEKPKRGRKRKEAPAENGEEKEEKEPAAKKAKPASKAAPGSKPAS = 12700

Prompt: State the recorded transcriptional activation domain activity for this entry: YAVPNDFVVTGGLLLLRYDRLNELPLGTRANSSVLVCVYRTWIALMRYLLAGP
Response: 62800

Prompt: Any idea what transcriptional activation domain activity was measured for MFYYIYLFSFFFIIVLPLPLSLCTFLHPLLLDCNFTLVAFFFCLLLFYVCHFF ?
Response: 28800

Prompt: State the recorded transcriptional activation domain activity for this entry: PSPFPPSLSPPLFPPFPPLPLCPPFLPLFPPSPLSPPFLPLFPPLFLPLSFPP
Response: 50200

Prompt: Find the recorded transcriptional activation domain activity belonging to IGSYYGKHELYEEVRAQDKILYCTLVLPFVYFLMFLWIWYYLYCFRFFGFFYA and report it.
Response: 22000

Prompt: Request the reported transcriptional activation domain activity associated with ALCEDRSQTWHPGTQLDFPQELLDQLNYYLVNLRKYFNNESILFLVYLGCVIF
Response: 59600

Prompt: Record request: transcriptional activation domain activity value, item LYVSLHAVVGNVAEFYFVRYGLALVCALCQTIMFQVTSVTLNGRIGLFFLIAT
Response: 45400

Prompt: Fill in: transcriptional activation domain activity of QASPEAAKAEGEKASPEAAKAEGEAQPAEGQKEGEAAKAEGEAAAAEAGAGAG is ___
Response: 27600

Prompt: Find the recorded transcriptional activation domain activity belonging to ESEKAGGKRKQERRSRAGRGEGEGEERENRCRGEEGRGREGGGRREGKEGVGG and report it.
Response: 39400
